Attribution: the supplement of paper PMC11732987

# system-under-test: UniProt Q5T2D3
# Sequence (whole entry): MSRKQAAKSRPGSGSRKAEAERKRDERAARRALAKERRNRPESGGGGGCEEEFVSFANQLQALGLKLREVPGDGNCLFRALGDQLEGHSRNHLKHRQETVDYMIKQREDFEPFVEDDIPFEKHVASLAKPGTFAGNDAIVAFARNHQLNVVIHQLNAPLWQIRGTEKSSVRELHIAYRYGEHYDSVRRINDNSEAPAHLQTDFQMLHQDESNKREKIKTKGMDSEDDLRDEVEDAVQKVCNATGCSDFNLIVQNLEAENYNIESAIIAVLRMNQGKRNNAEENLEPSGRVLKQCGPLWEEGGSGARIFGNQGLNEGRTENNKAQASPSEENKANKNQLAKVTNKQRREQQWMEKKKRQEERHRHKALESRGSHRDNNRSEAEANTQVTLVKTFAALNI
# measurement-description: log2 ratio of Biotin-Ahx-Ub-VS probe labelling (fragment/DMSO); higher = less target engagement (more negative = stronger competition), active = hit call of the paper (q ≤ 0.05, log2 ratio ≤ -1)
# test-settings: compound concentration: 200 uM; treatment time: 3 h
Class definitions on log2 ratio of Biotin-Ahx-Ub-VS probe labelling: class 0 (below -0.3), class 1 (-0.3 to below -0.1), class 2 (-0.1 or more)

query: Tag the class for CC(=O)C1CCCCN1C(=O)CCl (configuration not stated)
result: class 2

query: Tag the class for COc1ccc(C2CCCN2C(=O)CCl)c(OC)c1 (configuration not stated)
result: class 1
